Assay: Lung-to-plasma AUC ratio in Sprague-Dawley rat at 5 mg/kg, iv
Type: ADME, organism-based
Design: dose 5 mg/kg, route intravenous
Settings: lung and plasma

# COMPOUND, Kp
rows = [
    ("C=C[C@]12OC(=O)N(CCCCn3cnc(-c4ccc(Cl)nc4)c3)[C@@H]1[C@@H](C)C(=O)[C@H](C)C[C@@](C)(OC)[C@H](O[C@@H]1O[C@H](C)C[C@H](N(C)C)[C@H]1O)[C@@H](C)C(=O)[C@@H](C)C(=O)O[C@@H]2CC", 94),
    ("C=C[C@]12OC(=O)N(CCCCn3cnc(-c4ccc(C)nc4)c3)[C@@H]1[C@@H](C)C(=O)[C@H](C)C[C@@](C)(OC)[C@H](O[C@@H]1O[C@H](C)C[C@H](N(C)C)[C@H]1O)[C@@H](C)C(=O)[C@@H](C)C(=O)O[C@@H]2CC", 80),
    ("CC[C@H]1OC(=O)[C@H](C)C(=O)[C@H](C)[C@@H](O[C@@H]2O[C@H](C)C[C@H](N(C)C)[C@H]2O)[C@](C)(OC)C[C@@H](C)C(=O)[C@H](C)[C@H]2N(CCCCn3cnc(-c4cccnc4)c3)C(=O)O[C@]12C [TELITHROMYCIN]", 16),
]
